Hey, just so you know, these numbers are from patent US5776944A.

Test system: Staphylococcus aureus 6538p
ASSAY_PROTOCOL: In vitro antibacterial activity (MIC, agar dilution), Biological Example 1
Format: cell-based
RUN_PARAMETERS: 18 h, Table 25, read-out: Minimum Inhibitory Concentration
# MIC listing for each entry below

Fill in: MIC of C#CCON=C1CN(c2nc3c(cc2F)c(=O)c(C(=O)O)cn3C2CC2)CC1CN (centres unmarked) is ___ ≤ 8 ng/mL

Fill in: MIC of CC(C)ON=C1CN(c2nc3c(cc2F)c(=O)c(C(=O)O)cn3C2CC2)CC1CN (centres unmarked) is ___ ≤ 8 ng/mL

Fill in: MIC of CON=C1CN(c2nc3c(cc2F)c(=O)c(C(=O)O)cn3C2CC2)CC1CN (centres unmarked) is ___ ≤ 8 ng/mL

Fill in: MIC of C#CCCON=C1CN(c2nc3c(cc2F)c(=O)c(C(=O)O)cn3C2CC2)CC1CN (centres unmarked) is ___ ≤ 8 ng/mL

Fill in: MIC of CON=C1CN(c2c(F)cc3c(=O)c(C(=O)O)cn(C4CC4)c3c2F)CC1CN (centres unmarked) is ___ ≤ 8 ng/mL

Fill in: MIC of NCC1CN(c2cc3c(cc2F)c(=O)c(C(=O)O)cn3C2CC2)CC1=NOCc1ccccc1 (centres unmarked) is ___ ≤ 8 ng/mL

Fill in: MIC of NCC1CN(c2c(F)c(N)c3c(=O)c(C(=O)O)cn(C4CC4)c3c2F)CC1=NOCc1ccccc1 (centres unmarked) is ___ ≤ 8 ng/mL

Fill in: MIC of CC(C)(C)ON=C1CN(c2nc3c(cc2F)c(=O)c(C(=O)O)cn3C2CC2)CC1CN (centres unmarked) is ___ ≤ 8 ng/mL

Fill in: MIC of NCC1CN(c2c(F)cc3c(=O)c(C(=O)O)cn(C4CC4)c3c2Cl)CC1=NOCc1ccccc1 (centres unmarked) is ___ ≤ 8 ng/mL

Fill in: MIC of NCC1CN(c2nc3c(cc2F)c(=O)c(C(=O)O)cn3C2CC2)CC1=NOCc1ccccc1 (centres unmarked) is ___ ≤ 8 ng/mL

###

# MIC listing for each entry below
Test system: Pseudomonas aeruginosa 10145
ASSAY_PROTOCOL: In vitro antibacterial activity (MIC, agar dilution), Biological Example 1
Type: cell-based
RUN_PARAMETERS: 18 h; Pseudomonas aeruginosa 10145, Table 25; read-out: Minimum Inhibitory Concentration
API: value field is a number in µg/mL; no unit string.

Guide cases for MIC, answers given:
MOLECULE	MEASUREMENT_UNIT	MIC
CC(C)(C)ON=C1CN(c2nc3c(cc2F)c(=O)c(C(=O)O)cn3C2CC2)CC1CN (centres unmarked) [Example 89]	µg/mL	2
CC1COc2c(N3CCN(C)CC3)c(F)cc3c(=O)c(C(=O)O)cn1c23 (centres unmarked) [OFLX, ofloxacin, reference compound]	µg/mL	2
NCC1CN(c2nc3c(cc2F)c(=O)c(C(=O)O)cn3C2CC2)CC1=NOCc1ccccc1 (centres unmarked) [Example 1]	µg/mL	2
NCC1CN(c2c(F)cc3c(=O)c(C(=O)O)cn(C4CC4)c3c2Cl)CC1=NOCc1ccccc1 (centres unmarked) [Example 34]	µg/mL	2
CC(C)CON=C1CN(c2nc3c(cc2F)c(=O)c(C(=O)O)cn3C2CC2)CC1CN (centres unmarked) [Example 102]	µg/mL	2
CON=C1CN(c2nc3c(cc2F)c(=O)c(C(=O)O)cn3C2CC2)CC1CN (centres unmarked) [Example 180]	µg/mL	0.25
CON=C1CN(c2cc3c(cc2F)c(=O)c(C(=O)O)cn3C2CC2)CC1CN (centres unmarked) [Example 179]	µg/mL	0.25

Please turn your attention to the following entry.
For Pseudomonas aeruginosa 10145, provide MIC of CC(C)ON=C1CN(c2nc3c(cc2F)c(=O)c(C(=O)O)cn3C2CC2)CC1CN (centres unmarked) [Example 97] please. 1

###

System: Citrobacter diversus 2046E
ASSAY_PROTOCOL: In vitro antibacterial activity (MIC, agar dilution), Biological Example 1
Format: cell-based
RUN_PARAMETERS: Citrobacter koseri, 18 h, Table 25, read-out: Minimum Inhibitory Concentration
Binary label based on MIC with cut-off 0.1 µg/mL: below gives fulfilled, not below gives not fulfilled.

Sample answers from the record:
COMPOUND	CLASS
NCC1CN(c2c(F)cc3c(=O)c(C(=O)O)cn(C4CC4)c3c2Cl)CC1=NOCc1ccccc1 (centres unmarked)	not fulfilled
NCC1CN(c2cc3c(cc2F)c(=O)c(C(=O)O)cn3C2CC2)CC1=NOCc1ccccc1 (centres unmarked)	not fulfilled
CON=C1CN(c2c(F)cc3c(=O)c(C(=O)O)cn(C4CC4)c3c2F)CC1CN (centres unmarked)	fulfilled
CON=C1CN(c2cc3c(cc2F)c(=O)c(C(=O)O)cn3C2CC2)CC1CN (centres unmarked)	fulfilled
NCC1CN(c2c(F)c(N)c3c(=O)c(C(=O)O)cn(C4CC4)c3c2F)CC1=NOCc1ccccc1 (centres unmarked)	fulfilled

Check if MIC falls below 0.1 µg/mL for NCC1CN(c2nc3c(cc2F)c(=O)c(C(=O)O)cn3C2CC2)CC1=NOCc1ccccc1 (centres unmarked) . fulfilled

Check if MIC falls below 0.1 µg/mL for C#CCCON=C1CN(c2nc3c(cc2F)c(=O)c(C(=O)O)cn3C2CC2)CC1CN (centres unmarked) . fulfilled

Check if MIC falls below 0.1 µg/mL for CC(C)CON=C1CN(c2nc3c(cc2F)c(=O)c(C(=O)O)cn3C2CC2)CC1CN (centres unmarked) . not fulfilled

Check if MIC falls below 0.1 µg/mL for C#CCON=C1CN(c2nc3c(cc2F)c(=O)c(C(=O)O)cn3C2CC2)CC1CN (centres unmarked) . not fulfilled

Check if MIC falls below 0.1 µg/mL for CC1COc2c(N3CCN(C)CC3)c(F)cc3c(=O)c(C(=O)O)cn1c23 (centres unmarked) [OFLX, ofloxacin, reference compound] . fulfilled

Check if MIC falls below 0.1 µg/mL for CON=C1CN(c2c(F)cc3c(=O)c(C(=O)O)cn(C4CC4)c3c2Cl)CC1CN (centres unmarked) . not fulfilled

Check if MIC falls below 0.1 µg/mL for CON=C1CN(c2nc3c(cc2F)c(=O)c(C(=O)O)cn3C2CC2)CC1CN (centres unmarked) . fulfilled

Check if MIC falls below 0.1 µg/mL for CC(C)(C)ON=C1CN(c2nc3c(cc2F)c(=O)c(C(=O)O)cn3C2CC2)CC1CN (centres unmarked) . not fulfilled

Check if MIC falls below 0.1 µg/mL for CC(C)ON=C1CN(c2nc3c(cc2F)c(=O)c(C(=O)O)cn3C2CC2)CC1CN (centres unmarked) . fulfilled

###

ASSAY_PROTOCOL: Acute oral toxicity test
RUN_PARAMETERS: in vivo, ICR male mouse, 7 days
PARAMETER: LD50 at 168 h

MOLECULE	LD50 at 168 h
NCC1CN(c2nc3c(cc2F)c(=O)c(C(=O)O)cn3C2CC2)CC1=NOCc1ccccc1 (centres unmarked)	> 3000 mg/kg

Please turn your attention to the following entry.
Fill in: LD50 at 168 h of NCC1CN(c2c(F)cc3c(=O)c(C(=O)O)cn(C4CC4)c3c2Cl)CC1=NOCc1ccccc1 (centres unmarked) is ___ > 3000 mg/kg

###

Test system: Enterobacter cloacae 1194E
ASSAY_PROTOCOL: microbe, parasite or virus in culture
Assay type: cell-based
RUN_PARAMETERS: 18 h, read-out: Minimum Inhibitory Concentration
# log10(MIC) listing for each entry below
The figures below represent log10 of MIC, where MIC is stated in µg/mL.

Guide cases for log10(MIC), answers given:
MOLECULE	log10(MIC)
CON=C1CN(c2nc3c(cc2F)c(=O)c(C(=O)O)cn3C2CC2)CC1CN (centres unmarked) [Example 180]	-1.51
CC(C)ON=C1CN(c2nc3c(cc2F)c(=O)c(C(=O)O)cn3C2CC2)CC1CN (centres unmarked) [Example 97]	-1.20
NCC1CN(c2nc3c(cc2F)c(=O)c(C(=O)O)cn3C2CC2)CC1=NOCc1ccccc1 (centres unmarked) [Example 1]	-1.51
CC1COc2c(N3CCN(C)CC3)c(F)cc3c(=O)c(C(=O)O)cn1c23 (centres unmarked) [OFLX, ofloxacin, reference compound]	-1.20
NCC1CN(c2c(F)cc3c(=O)c(C(=O)O)cn(C4CC4)c3c2Cl)CC1=NOCc1ccccc1 (centres unmarked) [Example 34]	-0.60

Fill in: log10(MIC) of CON=C1CN(c2cc3c(cc2F)c(=O)c(C(=O)O)cn3C2CC2)CC1CN (centres unmarked) [Example 179] is ___ -1.51

Fill in: log10(MIC) of CON=C1CN(c2c(F)cc3c(=O)c(C(=O)O)cn(C4CC4)c3c2Cl)CC1CN (centres unmarked) [Example 178] is ___ -0.89

Fill in: log10(MIC) of CON=C1CN(c2c(F)cc3c(=O)c(C(=O)O)cn(C4CC4)c3c2F)CC1CN (centres unmarked) [Example 177] is ___ -1.20
